src = patent US20090099029

- TEST SYSTEM: T1, Bovine, dephosphorylated, Myelin Basic Protein (MBP), P02687
- T1 chain: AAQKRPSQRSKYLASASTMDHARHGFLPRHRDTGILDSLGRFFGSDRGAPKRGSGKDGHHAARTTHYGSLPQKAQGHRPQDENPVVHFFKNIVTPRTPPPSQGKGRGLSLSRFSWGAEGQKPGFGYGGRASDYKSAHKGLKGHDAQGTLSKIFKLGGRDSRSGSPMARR
PARAMETER MEASURED: MBP Kinase Activity

1) MAP2K6, mutant (protein) MSQSKGKKRNPGLKIPKEAFEQPQTSSTPPRDLDSKACISIGNQNFEVKADDLEPIMELGRGAYGVVEKMRHVPSGQIMAVKRIRATVNSQEQKRLLMDLDISMRTVDCPFTVTFYGALFREGDVWICMELMDTSLDKFYKQVIDKGQTIPEDILGKIAVSIVKALEHLHSKLSVIHRDVKPSNVLINALGQVKMCDFGISGYLVDEVAKEIDAGCKPYMAPERINPELNQKGYSVKSDIWSLGITMIELAILRFPYDSWGTPFQQLKQVVEEPSPQLPADKFSAEFVDFTSQCLKKNSKERPTYPELMQHPFFTLHESKGTDVASFVKLILGD
Negative
2) STK22B(TSSK2) (protein) MDDATVLRKKGYIVGINLGKGSYAKVKSAYSERLKFNVAVKIIDRKKTPTDFVERFLPREMDILATVNHGSIIKTYEIFETSDGRIYIIMELGVQGDLLEFIKCQGALHEDVARKMFRQLSSAVKYCHDLDIVHRDLKCENLLLDKDFNIKLSDFGFSKRCLRDSNGRIILSKTFCGSAAYAAPEVLQSIPYQPKVYDIWSLGVILYIMVCGSMPYDDSDIRKMLRIQKEHRVDFPRSKNLTCECKDLIYRMLQPDVSQRLHIDEILSHSWLQPPKPKATSSASFKREGEGKYRAECKLDTKTGLRPDHRPDHKLGAKTQHRLLVVPENENRMEDRLAETSRAKDHHISGAEVGKAST
Negative
